system: rice; assay: Low temperature assay on rice seedlings; assay type: in vivo; details: 0.1 mg/l, 2 °C, 3 days
Consider the following molecules and their measured Height readings.
Reply numerically in cm, unit not repeated.

Worked set:
| MOLECULE | Height (cm) |
| --- | --- |
| CC(C)[C@H](C)[C@@H](O)[C@H](O)[C@@H](C)[C@H]1CCC2C3COC(=O)C4C[C@H](O)[C@H](O)C[C@]4(C)C3CC[C@@]21C (stereo partly drawn) [BR1] | 7.1 |
| CC[C@@H](C(C)C)[C@@H](O)[C@H](O)[C@@H](C)[C@H]1CCC2C3COC(=O)C4C[C@H](O)[C@H](O)C[C@]4(C)C3CC[C@@]21C (stereo partly drawn) [BR2] | 7.1 |
| C=C(C(C)C)[C@@H](O)[C@H](O)[C@@H](C)[C@H]1CCC2C3COC(=O)C4C[C@H](O)[C@H](O)C[C@]4(C)C3CC[C@@]21C (stereo partly drawn) [BR3] | 7.1 |
| CC(C)[C@H](C)[C@@H](O)[C@H](O)[C@@H](C)[C@H]1CCC2C3CC(=O)C4C[C@H](O)CC[C@]4(C)C3CC[C@@]21C (stereo partly drawn) [BR4] | 7.1 |
| CC(C)(O)CC[C@@H](O)[C@](C)(O)[C@H]1CC[C@@]2(O)[C@@H]3CC(=O)[C@@H]4C[C@@H](O)[C@@H](O)C[C@]4(C)[C@H]3CC[C@]12C [BR6] | 7.1 |

Please give the measured Height for this molecule: CC(C)C[C@@H](O)[C@H](O)[C@@H](C)[C@H]1CCC2C3CC(=O)C4C[C@H](O)[C@H](O)C[C@]4(C)C3CC[C@@]21C (stereo partly drawn) [BR5] 7.1
